Tested on: HL-60
protocol-text: NCI tumour cell line growth inhibition, 48 h
Activity calls are given as the source filed them. No stated cut-off is given here; in the data, active = GI50 up to about 1.1 µM and inactive = higher.

# compound, GI50
data = [
    ("NCCn1ccc(NC(c2ccccc2)(c2ccccc2)c2ccccc2)nc1=O", "17.7 µM (inactive)"),
    ("CN1CN(c2ccccc2)C2(CCN(CCCC(=O)c3cccs3)CC2)C1=O", "52.8 µM (inactive)"),
    ("Cc1ccc2nc3ccccc3c(C3C4C(=O)N(c5ccc(F)cc5)C(=O)C4ON3C(C(N)=O)c3ccccc3)c2c1 (stereo not drawn)", "34.9 µM (inactive)"),
]

---

Test system: PC-3
protocol-text: NCI tumour cell line growth inhibition, 48 h
Activity calls are given as the source filed them. No stated cut-off is given here; in the data, active = GI50 up to about 1.1 µM and inactive = higher. Where a SMILES comes first, the peptide text is derived from it. The star is where a group is joined. Cbz = O=C(OCc1ccccc1)*
reported-endpoint: GI50

# compound, observed-measurement
measured = [
    ("COC1C(OC(=O)/C=C/C=C/C=C/C=C\\C(=O)O)CCC2(CO2)C1C1(C)OC1CC=C(C)C (stereo unspecified)", "> 100 µM (inactive)"),
    ("O=C1c2ccccc2C(=O)N1CC1(C(=O)O)NCCS1(=O)=O (stereo unspecified)", "> 100 µM (inactive)"),
    ("O/N=C1/CCCCCC1NO (stereo unspecified)", "> 100 µM (inactive)"),
    ("O=[N+]([O-])c1cccc2c(/N=N/c3ccc4ccccc4c3O)c(O)cc(S(=O)(=O)O)c12", "18.8 µM (inactive)"),
    ("CCOC(=O)C(CC(=O)OC)NC(=O)C(CC(=O)OC)NC(=O)C(CC(=O)OC)NC(=O)C(CC(=O)OC)NC(=O)OCc1ccccc1 (stereo unspecified) (Cbz-D(OMe)D(OMe)D(OMe)D(OMe)-OEt; configuration not given here)", "> 100 µM (inactive)"),
    ("COC(=O)C1=C(C)NC(C)=C(C(=O)OC)C1c1cccc(NO)c1", "15 µM (inactive)"),
    ("COc1ccc(OC)c(/C=C/NC=O)c1", "> 100 µM (inactive)"),
    ("COc1cc2c(cc1O)CC1c3c(cc(O)c(OC)c3-2)CCN1C (stereo unspecified)", "> 96.6 µM (inactive)"),
    ("COc1ccc(/C=N/n2c(C)n[nH]c2=O)c(OC)c1", "> 100 µM (inactive)"),
    ("C=CC[N+]12CN3CN(CN(C3)C1)C2", "31.4 µM (inactive)"),
    ("BrP(NC1CCCCCC1)(c1ccccc1)(c1ccccc1)c1ccccc1", "1.56 µM (inactive)"),
    ("CC(C(=O)NCCNC(=O)CCC(=O)N(C)O)C(=O)NCCNC(=O)CCC(=O)N(C)O", "> 100 µM (inactive)"),
    ("Cc1nc2n(c1/C=C1/C(=O)Nc3cccc(Cl)c31)CCS2", "38 µM (inactive)"),
    ("S=C(/N=c1\\sc(Nc2ccc(Cl)cc2)nc2sc3c(c12)CCN(N1CCc2c(sc4nc(Nc5ccc(Cl)cc5)s/c(=N\\C(=S)Nc5ccc(Cl)cc5)c24)C1)C3)Nc1ccc(Cl)cc1", "30.3 µM (inactive)"),
    ("COP(C)(=O)/C(Cc1ccccc1)=N\\O (stereo unspecified)", "> 100 µM (inactive)"),
    ("CN(C)CCO/N=C1/C=C2CC[C@H]3[C@@H]4CC[C@H](O)[C@@]4(C)CC[C@@H]3[C@@]2(C)CC1", "18.2 µM (inactive)"),
]
